In this section, each of the compounds is paired with its reported MOR agonist activity ([35S]GTPgS binding to Gao).
Target: mu opiate receptor (MOR) (Rattus norvegicus, UniProt P33535)
Construct: from tissue; host or cells: striatum (membrane preparation)
Sequence (P33535 whole entry): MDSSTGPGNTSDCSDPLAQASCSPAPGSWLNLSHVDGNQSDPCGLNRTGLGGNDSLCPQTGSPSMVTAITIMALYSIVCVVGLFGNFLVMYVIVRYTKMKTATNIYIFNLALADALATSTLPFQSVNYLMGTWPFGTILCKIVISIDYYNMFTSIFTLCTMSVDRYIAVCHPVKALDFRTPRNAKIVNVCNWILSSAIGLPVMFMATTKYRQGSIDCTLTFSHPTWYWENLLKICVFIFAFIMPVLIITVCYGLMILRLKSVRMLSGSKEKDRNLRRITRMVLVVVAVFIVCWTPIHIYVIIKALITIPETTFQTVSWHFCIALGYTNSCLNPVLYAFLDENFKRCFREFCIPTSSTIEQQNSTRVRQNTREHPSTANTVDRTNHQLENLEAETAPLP
Assay: MOR agonist activity using [35S]GTPgS binding assay in striatal membranes
Assay type: biochemical
Details: 0.1 μM compound as agonist; Series C-1 table
parameter-measured: MOR agonist activity ([35S]GTPgS binding to Gao) (%)

* N#Cc1ccccc1S(=O)(=O)N1CCC2(CC1)OCCN2S(=O)(=O)c1ccccc1C#N [Compound C0004] | 122.0
* O=S(=O)(c1ccc(Br)c(C(F)(F)F)c1)N1CCC2(CC1)OCCN2S(=O)(=O)c1ccc(Br)c(C(F)(F)F)c1 [Compound C0077] | 192.7
* COc1ccc(C(=O)N2CCC3(CC2)OCCN3S(=O)(=O)c2ccc(OC)cc2)cc1 [Compound C0018] | 195.5
* COc1ccc(C(=O)N2CCOC23CCN(S(=O)(=O)c2ccc(OC)cc2)CC3)cc1 [Compound C0019] | 104.4
